Field: IC50 of virus neutralization (TZM-BL, luciferase). Provide a value for each of the binders that follow.
Target: HIV-1 REJO4541.67 envelope (Env) on Env.IMC.LucR virus (HIV-1 clade B)
Experiment: cell-based or functional assay

Batch request: IC50 of virus neutralization (TZM-BL, luciferase) for each of the following binders.
1. Germ12_NglycoSA_CysCV (antibody, V domains shown) VH: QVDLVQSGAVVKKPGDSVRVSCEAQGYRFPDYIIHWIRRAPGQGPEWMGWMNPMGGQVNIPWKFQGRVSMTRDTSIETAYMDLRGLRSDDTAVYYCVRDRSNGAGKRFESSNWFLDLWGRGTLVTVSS VL: QSALTQPRSVSGSPGQSVTISCTGTHNLVSWVQHQPGRAPKLLIYDFNKRPSGVPDRFSGSGSGGTASLTISGLQDEDDAEYFCWAYEAFGGGTKLTVL
2. Germ23 (antibody, V domains shown) VH: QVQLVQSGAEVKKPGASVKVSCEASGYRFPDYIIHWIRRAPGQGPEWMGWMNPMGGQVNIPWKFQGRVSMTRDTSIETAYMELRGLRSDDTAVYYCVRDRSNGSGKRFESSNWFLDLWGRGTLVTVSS VL: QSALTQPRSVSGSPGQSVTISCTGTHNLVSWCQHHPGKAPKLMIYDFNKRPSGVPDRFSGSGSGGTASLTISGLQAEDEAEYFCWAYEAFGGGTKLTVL
3. NglycoND (antibody, V domains shown) VH: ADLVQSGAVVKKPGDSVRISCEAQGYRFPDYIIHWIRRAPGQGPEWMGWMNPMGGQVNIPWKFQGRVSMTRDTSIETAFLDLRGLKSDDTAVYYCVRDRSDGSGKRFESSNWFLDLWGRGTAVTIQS VL: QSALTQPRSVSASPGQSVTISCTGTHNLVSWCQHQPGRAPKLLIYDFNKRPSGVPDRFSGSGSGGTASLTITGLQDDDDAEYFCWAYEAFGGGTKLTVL
4. Germ12 (antibody, V domains shown) VH: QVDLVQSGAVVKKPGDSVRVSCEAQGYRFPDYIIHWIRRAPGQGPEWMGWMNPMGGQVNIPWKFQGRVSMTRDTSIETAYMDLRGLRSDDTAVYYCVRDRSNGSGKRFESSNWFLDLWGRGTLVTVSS VL: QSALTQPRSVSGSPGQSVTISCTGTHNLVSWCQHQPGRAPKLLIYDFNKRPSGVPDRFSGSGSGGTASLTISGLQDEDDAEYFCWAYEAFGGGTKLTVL

Reply:
≤ 0.02 µg/mL
0.037 µg/mL
0.062 µg/mL
0.092 µg/mL

Query: Give IC50 of virus neutralization (TZM-BL, luciferase) for Germ6 (antibody, V domains shown) VH: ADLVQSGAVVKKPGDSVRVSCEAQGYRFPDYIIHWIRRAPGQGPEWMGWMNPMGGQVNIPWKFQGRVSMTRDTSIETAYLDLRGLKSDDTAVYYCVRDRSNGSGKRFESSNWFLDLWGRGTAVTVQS VL: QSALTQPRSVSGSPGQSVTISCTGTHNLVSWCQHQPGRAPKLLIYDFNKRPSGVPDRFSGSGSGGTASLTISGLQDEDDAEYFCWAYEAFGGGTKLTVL
Reply: 0.062 µg/mL

Numbers sourced from patent US20210040184A1.
